Protocol summary: Animal study: plasma pharmacokinetics of Compound A and metabolite Compound B after sublingual or oral administration of the Compound A solid composition
Measurement conditions: male, beagle, dog, plasma, 13 mg, AUC, Sublingual, Subject 2, anesthetized dog; 13 mg Compound A, Example 6 tablet; zero to infinity
Metric: AUC (µM·h)

> print(dat)
                                   compound  metric  numeric.result
1  CN[C@@H](C)C/C=C/c1cncc(OC(C)C)c1 [Compound A]     AUC             1.5

----------
Protocol summary: Animal study: plasma pharmacokinetics of Compound A and metabolite Compound B after sublingual or oral administration of the Compound A solid composition
Measurement conditions: male, beagle, dog, plasma, po, 13 mg, plasma concentration at 5 minutes, 5 minutes after oral administration, Subject 1, dog, 13 mg
Metric: concentration at 5 min

> print(dat)
                         item.smiles  result
1  CN[C@@H](C)C/C=C/c1cncc(OC(C)C)c1   ~2 nM

These entries and their values trace back to patent US20110130428A1.
